Listed here are binders together with their documented Etop pY588.
- system-under-test: EphA2 endogenously expressed on PC3 prostate cancer cells (UniProt P29317 24-976, limits assumed)
- Sequence (P29317 24-976 limits assumed): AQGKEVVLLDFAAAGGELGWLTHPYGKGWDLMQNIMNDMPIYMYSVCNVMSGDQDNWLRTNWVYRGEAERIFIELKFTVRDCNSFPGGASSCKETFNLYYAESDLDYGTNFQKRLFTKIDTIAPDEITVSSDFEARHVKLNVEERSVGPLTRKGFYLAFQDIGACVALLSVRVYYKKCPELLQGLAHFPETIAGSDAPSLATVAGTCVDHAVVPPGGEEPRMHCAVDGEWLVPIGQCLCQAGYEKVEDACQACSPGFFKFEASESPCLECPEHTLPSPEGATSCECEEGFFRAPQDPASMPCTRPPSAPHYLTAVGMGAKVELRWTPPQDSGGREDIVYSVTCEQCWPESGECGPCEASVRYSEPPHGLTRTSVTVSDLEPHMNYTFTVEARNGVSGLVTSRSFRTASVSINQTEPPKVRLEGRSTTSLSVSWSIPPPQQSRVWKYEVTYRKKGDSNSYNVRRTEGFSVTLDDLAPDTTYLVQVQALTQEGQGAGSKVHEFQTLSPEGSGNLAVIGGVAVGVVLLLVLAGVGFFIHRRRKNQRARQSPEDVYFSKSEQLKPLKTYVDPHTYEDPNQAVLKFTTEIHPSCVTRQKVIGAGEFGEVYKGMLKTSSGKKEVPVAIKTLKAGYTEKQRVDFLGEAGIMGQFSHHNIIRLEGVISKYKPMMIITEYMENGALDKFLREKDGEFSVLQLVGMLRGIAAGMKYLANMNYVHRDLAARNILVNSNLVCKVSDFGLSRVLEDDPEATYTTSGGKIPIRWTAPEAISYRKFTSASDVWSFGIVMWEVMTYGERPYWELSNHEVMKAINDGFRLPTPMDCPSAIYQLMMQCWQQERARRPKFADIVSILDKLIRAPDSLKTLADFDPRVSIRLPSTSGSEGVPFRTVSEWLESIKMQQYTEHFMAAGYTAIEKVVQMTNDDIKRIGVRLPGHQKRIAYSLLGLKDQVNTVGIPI
- protocol: cell-based or functional assay
Where no end group is shown, it is not given here.

binder	Etop pY588
CGAWLAYPDSVPYR (also: homodimer: N-terminal Cys of two chains joined by disulfide, N-terminally disulfide-linked homodimer made from monomer (15*); also called dimer (4)) [CGA-WLA-YR dimer (N-ter)]	0.94 normalized to ephrinA1-Fc
Click dimer (N-ter) (not fully specified; propargylglycine (Pra) at position 1, joined by a click linkage to KN3 of the other chain; C-terminal amide; azido-lysine (KN3) at position 1, joined by a click linkage to Pra of the other chain; C-terminal amide) peptide 1: KAWLAYPDSVPYRPK peptide 2: XGAWLAYPDSVPYRPK	0.98 normalized to ephrinA1-Fc
CGAWLAYPDSVPYRPK (also: N-terminally disulfide-linked homodimer, disulfide at 1, other end not in the chain, also called dimer (5); dimeric peptide (5)) [CGA-WLA-YRPK dimer (N-ter)]	0.87 normalized to ephrinA1-Fc
